- Test system: MDR(+) acute promyelocytic leukemia cells (HL60/RV)
- assay.name: In vitro potency, CellTiter-Glo growth inhibition, HL60/RV
- Format: cell-based
- details: Homo sapiens, HL-60, 96 h, read-out: IC50 HL60/RV
parameter.measured: pIC50
For clarity, pIC50 is expressed as the negative log10 of concentration in mol/L.

Task: Provide measured pIC50 value, entry: `CC[C@@]1(O)C(=O)OCc2c1cc1n(c2=O)Cc2c-1nc1cc3c(cc1c2CNC(=O)[C@@H](N)CCCCN)OCO3`
Result: 6.89

Task: In one line, give reported pIC50 of the entry `CC[C@@]1(O)C(=O)OCc2c1cc1n(c2=O)Cc2c-1nc1cc3c(cc1c2CNC(=O)[C@@H](N)CC(C)C)OCO3` .
Result: 6.71

Task: Provide only the value of recorded pIC50 for `CC[C@@]1(O)C(=O)OCc2c1cc1n(c2=O)Cc2c-1nc1cc3c(cc1c2CNC(=O)[C@@H](N)C(C)C)OCO3`
Result: 6.07

Task: Given `CC[C@@]1(O)C(=O)OCc2c1cc1n(c2=O)Cc2c-1nc1cc3c(cc1c2CNC(=O)[C@@H](N)CCSC)OCO3` , respond with its pIC50.
Result: 6.43

Task: Look up pIC50 of `CC[C@@]1(O)C(=O)OCc2c1cc1n(c2=O)Cc2c-1nc1cc3c(cc1c2CNC(=O)C(C)(C)N)OCO3` and report it.
Result: 6.08

Task: Return value of pIC50 for input `CC[C@@]1(O)C(=O)OCc2c1cc1n(c2=O)Cc2c-1nc1cc3c(cc1c2CNC(=O)[C@H](C)N)OCO3` , no commentary.
Result: 6.38

====

- System: MDR(+) acute promyelocytic leukemia cells (HL60/RV)
- assay.name: In vitro potency, CellTiter-Glo growth inhibition, HL60/RV
- Assay type: cell-based
- details: Homo sapiens, HL-60, 96 h, read-out: IC50 HL60/RV
pIC50: −log10 of the molar value.
parameter.measured: pIC50

Task: Identify measured pIC50 obtained with MDR(+) acute promyelocytic leukemia cells (HL60/RV) for `CC[C@@]1(O)C(=O)OCc2c1cc1n(c2=O)Cc2c-1nc1cc3c(cc1c2CNC(=O)[C@@H](N)CCC(N)=O)OCO3` .
Result: < 6.00

Task: // fetch pIC50 for `CC[C@@]1(O)C(=O)OCc2c1cc1n(c2=O)Cc2c-1nc1cc3c(cc1c2CNC(=O)[C@@H](N)[C@@H](C)O)OCO3` ; system: MDR(+) acute promyelocytic leukemia cells (HL60/RV)
Result: < 6.00

Task: Look up MDR(+) acute promyelocytic leukemia cells (HL60/RV) data: pIC50 of `CC[C@@]1(O)C(=O)OCc2c1cc1n(c2=O)Cc2c-1nc1cc3c(cc1c2CNC(=O)[C@@H](N)CC(=O)O)OCO3` , then report it.
Result: < 6.00

Data origin: patent US20240277860A1
